Dear all, this message contains pIC50 results, target or system h5-HT Transporter (Homo sapiens).
Remember the convention: pIC50 equals -log10 of concentration in molar.

Recorded results for 2 molecules are shown here.
In [3]: df
Out[3]:
                                        smi  assayendpoint  experimentalresult
0  CC(C)Oc1ccc(C(N)=O)c2c1OC[C@H](N(CCCc1c[nH]c3ccc(F)cc13)C1CCC1)C2          pIC50                6.67
1  CCCOc1ccc(C(N)=O)c2c1OC[C@H](N(CCCc1c[nH]c3ccc(F)cc13)C1CCC1)C2          pIC50                6.35

Notebook: pull reported pIC50 for h5-HT Transporter (Homo sapiens), entry CCOc1ccc(C(N)=O)c2c1OC[C@H](N(CCCc1c[nH]c3ccc(F)cc13)C1CCC1)C2
6.48

Continue with CN(C)c1ccc(C(N)=O)c2c1OC[C@H](N(CCCc1c[nH]c3ccc(F)cc13)C1CCC1)C2
6.90

* * *

target: h5HT1a receptor (Homo sapiens, UniProt P08908); test: cAMP RIA in CHO cells stably transfected with the h5HT1a receptor; conditions: agonist; forskolin-stimulated cAMP; read-out: 5-HT1A Function cAMP EC50
Sequence (P08908 whole entry): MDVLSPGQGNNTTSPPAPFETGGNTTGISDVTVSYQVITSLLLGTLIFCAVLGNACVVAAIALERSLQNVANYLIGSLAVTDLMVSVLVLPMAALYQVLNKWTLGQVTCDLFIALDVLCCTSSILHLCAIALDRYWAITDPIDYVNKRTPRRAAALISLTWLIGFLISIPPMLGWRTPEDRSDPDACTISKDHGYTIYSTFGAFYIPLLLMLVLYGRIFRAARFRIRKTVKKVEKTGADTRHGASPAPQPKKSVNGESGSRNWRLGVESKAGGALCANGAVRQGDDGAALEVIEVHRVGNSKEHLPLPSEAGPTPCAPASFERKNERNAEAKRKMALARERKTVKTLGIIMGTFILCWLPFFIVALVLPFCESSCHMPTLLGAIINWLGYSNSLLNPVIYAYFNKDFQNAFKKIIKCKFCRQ
assayEndpoint: EC50
State the value, then name its unit.

Recorded results for 3 molecules are shown here.
                                        smi  assayendpoint  experimentalresult
0  NC(=O)c1ccc(O)c2c1C[C@@H](N(CCCc1c[nH]c3ccc(F)cc13)C1CCC1)CO2           EC50              312 nM
1  Cc1ccc(C(N)=O)c2c1OC[C@H](N(CCCc1c[nH]c3ccc(F)cc13)C1CCC1)C2           EC50             51.8 nM
2  COc1ccc(C(N)=O)c2c1OC[C@H](NCCCc1c[nH]c3ccc(F)cc13)C2           EC50              230 nM

Please turn your attention to the following entry.
Quick check: EC50 of CCCN(CCCc1c[nH]c2ccc(F)cc12)[C@H]1COc2c(OC)ccc(C(N)=O)c2C1 ?
186 nM

* * *

molecular target: human 5-HT1A receptors (Homo sapiens); experiment: 8-OH-DPAT binding in CHO cells stably transfected with human 5HT1a receptor; settings: displacement of [3H]8-OH-DPAT, CHO cells with human 5-HT1A; read-out: 5-HT1A Receptor Affinity Ki
Binarize Ki at 100 nM; below is 1 (yes), at or above is 0 (no).

Worked set:
>>> print(df.to_string())
                                        smi  categorylabel
0  Cc1ccc(C(N)=O)c2c1OC[C@H](N(CCCc1c[nH]c3ccc(F)cc13)C1CCC1)C2        1 (yes)
1  CCN(CCCc1c[nH]c2ccc(F)cc12)[C@H]1COc2c(OC)ccc(C(N)=O)c2C1         0 (no)

Does the reported Ki of the following compound sit strictly below 100 nM? CNC(=O)c1ccc(OC)c2c1C[C@@H](N(CCCc1c[nH]c3ccc(F)cc13)CCC(F)(F)F)CO2
0 (no)

* * *

biological target: human 5-HT1A receptors (Homo sapiens, UniProt P08908); construct: expressed in transfected cells; host or cells: CHO cells, stably transfected; test: 35S-GTPγS binding assay, membranes containing cloned human 5-HT1A receptors; assay type: biochemical; conditions: read-out: 5-HT1A Function GTPγS IC50
Sequence (P08908 whole entry): as above
Listing of entries alongside the reported pIC50.
Remember the convention: pIC50 equals -log10 of concentration in molar.

In [3]: df
Out[3]:
                                   compound                                measuredon  experimentalresult
0  CCCN(CCCc1c[nH]c2ccc(F)cc12)[C@H]1COc2c(OC)ccc(C(N)=O)c2C1 [Example 10]  human 5-HT1A receptors (Homo sapiens, UniProt P08908)                6.49
1  Cc1ccc(C(N)=O)c2c1OC[C@H](N(CCCc1c[nH]c3ccc(F)cc13)C1CCC1)C2 [Example 20]  human 5-HT1A receptors (Homo sapiens, UniProt P08908)                6.51
2  CCOc1ccc(C(N)=O)c2c1OC[C@H](N(CCCc1c[nH]c3ccc(F)cc13)C1CCC1)C2 [Example 3]  human 5-HT1A receptors (Homo sapiens, UniProt P08908)                5.30
3  CNc1ccc(C(N)=O)c2c1OC[C@H](N(CCCc1c[nH]c3ccc(F)cc13)C1CCC1)C2 [Example 25]  human 5-HT1A receptors (Homo sapiens, UniProt P08908)                5.45

Quick check: pIC50 of CCCOc1ccc(C(N)=O)c2c1OC[C@H](N(CCCc1c[nH]c3ccc(F)cc13)C1CCC1)C2 [Example 4] ?
6.16
